System: healthy animals
Assay: Effect of the compounds on healthy animals (same in vivo assay, cerebral oxidative parameters)
Design: species or system mice
Settings: healthy mice, 50 mg/kg IP x3 days; percentage change relative to the vehicle
MEASUREMENT NAME: GSH/pr (%)
Respond numerically; units are % and should not be typed.

Consider the following illustrative entries.
{"columns": ["COMPOUND", "MEASUREMENT NAME", "QUANTITATIVE RESULT"],
 "data": [
  ["COc1cccc2c1C(=O)c1c(O)c3c(c(O)c1C2=O)C[C@@](O)(C(=O)CO)C[C@@H]3O[C@H]1C[C@H](N)[C@H](O)[C@H](C)O1 [doxorubicin, reference compound]", "GSH/pr", -12.5],
  ["CC1(C)CC(=O)C(C2CCCCN2O)C(=O)C1 (stereo not drawn) [(3)]", "GSH/pr", 2.0],
  ["O=C1CCC(=O)C1C1COCCN1O (stereo not drawn) [(7)]", "GSH/pr", -9.5],
  ["CC1=NN(c2ccccc2)C(=O)C1 [edaravone, reference compound]", "GSH/pr", -5.5],
  ["CC1=NN(c2ccccc2)C(=O)C1C1COCCN1O (stereo not drawn) [(11)]", "GSH/pr", -1.2]
]}

Here is another compound to look at.
Give its GSH/pr value. Item: CC1(C)CCN(O)C(C2C(=O)CC(c3ccccc3)CC2=O)C1 (stereo not drawn) [(2)]
6.1

====

Test system: doxorubicin-induced cerebral oxidative stress in mice
Experiment: In vivo assay of cerebral oxidative stress induced in mice by doxorubicin (model and oxidized animals)
Conditions: Mus musculus, ip; oxidized mice; % inhibition relative to change due to doxorubicin alone; vs its own; read-out: GPX/pr its own
Measured change in vivo at 50 mg/kg, listed per entry for reference.
Response body: numeric value in %, unit text excluded.

Please review the following examples before continuing.
{"columns": ["MOLECULE", "TARGET UNDER TEST", "change in vivo at 50 mg/kg / %"],
 "data": [
  ["CC1(C)CC(=O)C(C2CCCCN2O)C(=O)C1 (centres unmarked)", "doxorubicin-induced cerebral oxidative stress in mice", -108],
  ["CC1(C)CC(=O)C(C2COCCN2O)C(=O)C1 (centres unmarked)", "doxorubicin-induced cerebral oxidative stress in mice", -105],
  ["O=C1CC(c2ccccc2)CC(=O)C1C1COCCN1O (centres unmarked)", "doxorubicin-induced cerebral oxidative stress in mice", -14.1],
  ["CC1=NN(c2ccccc2)C(=O)C1C1COCCN1O (centres unmarked)", "doxorubicin-induced cerebral oxidative stress in mice", -7.1]
]}

Can you look up the measured change in vivo at 50 mg/kg of O=c1oc2ccccc2c(O)c1C1COCCN1O (centres unmarked) for me?
-117

Name the recorded change in vivo at 50 mg/kg for O=C1c2ccccc2C(=O)C1C1COCCN1O (centres unmarked) .
-2

Value lookup for change in vivo at 50 mg/kg; key = CC1=NN(c2ccccc2)C(=O)C1 [edaravone, reference compound]
-130

Param item = O=C1CCC(=O)C1C1COCCN1O (centres unmarked) ; retrieve measured change in vivo at 50 mg/kg.
-30.3

====

Each entry below carries its recorded Prot. Ox/pr.
System: healthy animals
Assay: Effect of the compounds on healthy animals (same in vivo assay, cerebral oxidative parameters)
Parameters: species or system mice
Conditions: healthy mice, 50 mg/kg IP x3 days; percentage change relative to the vehicle
Expressed in %, but write only the number.

I'd like to know its Prot. Ox/pr. The molecule in question is COc1cccc2c1C(=O)c1c(O)c3c(c(O)c1C2=O)C[C@@](O)(C(=O)CO)C[C@@H]3O[C@H]1C[C@H](N)[C@H](O)[C@H](C)O1 [doxorubicin, reference compound]
17.2

Prot. Ox/pr lookup needed for CC1(C)CCN(O)C(C2C(=O)CC(c3ccccc3)CC2=O)C1 (stereo not drawn) [(2)] , thanks.
-3.7

====

Test system: healthy animals
Assay: Effect of the compounds on healthy animals (same in vivo assay, cerebral oxidative parameters)
Parameters: species or system mice
Conditions: healthy mice, 50 mg/kg IP x3 days; percentage change relative to the vehicle
Entries and their GST/pr
Remember to quote the unit after the number.

Some solved entries appear below for comparison.
{"columns": ["COMPOUND", "TARGET UNDER TEST", "RESULT"],
 "data": [
  ["CC1=NN(c2ccccc2)C(=O)C1C1COCCN1O (stereo not drawn)", "healthy animals", "-0.9%"],
  ["CC1=NN(c2ccccc2)C(=O)C1 [edaravone, reference compound]", "healthy animals", "-3.1%"],
  ["O=C1CCC(=O)C1C1COCCN1O (stereo not drawn)", "healthy animals", "-0.5%"],
  ["CC1(C)CCN(O)C(C2C(=O)CC(c3ccccc3)CC2=O)C1 (stereo not drawn)", "healthy animals", "5.8%"],
  ["CC1(C)CC(=O)C(C2CCCCN2O)C(=O)C1 (stereo not drawn)", "healthy animals", "4.1%"]
]}

Let us move to another entry and its GST/pr.
What value of GST/pr on healthy animals does COc1cccc2c1C(=O)c1c(O)c3c(c(O)c1C2=O)C[C@@](O)(C(=O)CO)C[C@@H]3O[C@H]1C[C@H](N)[C@H](O)[C@H](C)O1 [doxorubicin, reference compound] have?
-9.1%

====

Listed here: items and their measured SOD/pr.
Tested on: healthy animals
Experiment: Effect of the compounds on healthy animals (same in vivo assay, cerebral oxidative parameters)
Design: species or system mice
Settings: healthy mice, 50 mg/kg IP x3 days; percentage change relative to the vehicle

{"columns": ["COMPOUND", "MEASUREMENT NAME", "RESULT"],
 "data": [
  ["CC1=NN(c2ccccc2)C(=O)C1C1COCCN1O (stereo not drawn)", "SOD/pr", "-33. %"],
  ["CC1(C)CC(=O)C(C2CCCCN2O)C(=O)C1 (stereo not drawn)", "SOD/pr", "-2.8%"],
  ["CC1=NN(c2ccccc2)C(=O)C1 [edaravone, reference compound]", "SOD/pr", "-2.2%"],
  ["COc1cccc2c1C(=O)c1c(O)c3c(c(O)c1C2=O)C[C@@](O)(C(=O)CO)C[C@@H]3O[C@H]1C[C@H](N)[C@H](O)[C@H](C)O1 [doxorubicin, reference compound]", "SOD/pr", "-14.3%"],
  ["O=C1CCC(=O)C1C1COCCN1O (stereo not drawn)", "SOD/pr", "0.5%"]
]}

Okay, now this compound:
Entry CC1(C)CCN(O)C(C2C(=O)CC(c3ccccc3)CC2=O)C1 (stereo not drawn) has what SOD/pr?
-0.2%

====

Parameter: GPX/pr. Scope: all listed entries.
Test system: healthy animals
Test: Effect of the compounds on healthy animals (same in vivo assay, cerebral oxidative parameters)
Design: species or system mice
Conditions: healthy mice, 50 mg/kg IP x3 days; percentage change relative to the vehicle
Description: 10 mice were used for each treatment group. For each compound 50 mg/kg were administered intraperitoneally (IP) for three consecutive days (day 0, 1 and 2); half the animals (5) also received IP 16.7 mg/kg of doxorubicin immediately after the first treatment (day 0). On the day after the last administration (day 3) the animals were killed by neck dislocation and the brains were removed, weighed and frozen in liquid nitrogen. […]
Give your result in % as a bare value.

Record excerpt, results attached:
{"columns": ["COMPOUND", "TARGET UNDER TEST", "U", "QUANTITATIVE RESULT"],
 "data": [
  ["CC1=NN(c2ccccc2)C(=O)C1C1COCCN1O (stereo not drawn) [(11)]", "healthy animals", "%", -3.3],
  ["CC1=NN(c2ccccc2)C(=O)C1 [edaravone, reference compound]", "healthy animals", "%", -6.7],
  ["COc1cccc2c1C(=O)c1c(O)c3c(c(O)c1C2=O)C[C@@](O)(C(=O)CO)C[C@@H]3O[C@H]1C[C@H](N)[C@H](O)[C@H](C)O1 [doxorubicin, reference compound]", "healthy animals", "%", -9.9]
]}

What does the data say about its GPX/pr? Entry: CC1(C)CCN(O)C(C2C(=O)CC(c3ccccc3)CC2=O)C1 (stereo not drawn) [(2)]
6.6

GPX/pr lookup needed for O=C1CCC(=O)C1C1COCCN1O (stereo not drawn) [(7)] , thanks.
-0.8

Quick one: GPX/pr for CC1(C)CC(=O)C(C2CCCCN2O)C(=O)C1 (stereo not drawn) [(3)] ?
-1.8

====

System: healthy animals
Experiment: Effect of the compounds on healthy animals (same in vivo assay, cerebral oxidative parameters)
Set-up: species or system mice
Conditions: healthy mice, 50 mg/kg IP x3 days; percentage change relative to the vehicle
# CAT/pr per entry
All answers are understood in %, so give the number only.

{"columns": ["COMPOUND", "U", "CAT/pr"],
 "data": [
  ["O=C1CCC(=O)C1C1COCCN1O (stereo not drawn)", "%", -11.6],
  ["CC1=NN(c2ccccc2)C(=O)C1 [edaravone, reference compound]", "%", -5.0],
  ["CC1(C)CC(=O)C(C2CCCCN2O)C(=O)C1 (stereo not drawn)", "%", -10.5],
  ["CC1(C)CCN(O)C(C2C(=O)CC(c3ccccc3)CC2=O)C1 (stereo not drawn)", "%", -2.9]
]}

# CAT/pr lookup, item CC1=NN(c2ccccc2)C(=O)C1C1COCCN1O (stereo not drawn)
-1.6

Look up CAT/pr: COc1cccc2c1C(=O)c1c(O)c3c(c(O)c1C2=O)C[C@@](O)(C(=O)CO)C[C@@H]3O[C@H]1C[C@H](N)[C@H](O)[C@H](C)O1 [doxorubicin, reference compound]
-13.2
